Target: AMPA receptor
Assay: [3H]-AMPA binding inhibitory activity
Details: rat cerebral membrane
observed-property: Ki (nM)
Give your result in nM as a bare value.

Looking up O=c1[nH]c2cc([N+](=O)[O-])c(-n3ccnc3)cc2n(O)c1=O , I found its Ki recorded as 21
